B1: TPR 5TU (parent)
chain: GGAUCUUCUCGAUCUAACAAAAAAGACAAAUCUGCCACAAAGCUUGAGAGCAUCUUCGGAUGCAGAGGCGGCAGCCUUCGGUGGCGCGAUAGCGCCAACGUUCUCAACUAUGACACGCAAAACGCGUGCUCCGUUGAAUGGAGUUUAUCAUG

variants of: B1; assay: polymerase ribozyme fitness, log enrichment relative to wild type (log ratio); higher = more active; in vitro selection for triplet polymerase activity
Fewer inactive variants are shown than the library holds.
READOUT NAME: polymerase ribozyme fitness (log ratio)

Qu. Report polymerase ribozyme fitness (log ratio) for U31A G58C U61A C87G C96U C99U C114G A150G please.
Ans. ≤ -4.2

Qu. Report polymerase ribozyme fitness (log ratio) for G68C U78C C96A A98G G143A please.
Ans. ≤ -4.2

Qu. Report polymerase ribozyme fitness (log ratio) for G94U G128U U139A G141A please.
Ans. ≤ -4.2

Qu. Report polymerase ribozyme fitness (log ratio) for G46U C51G C54U please.
Ans. ≤ -4.2

Qu. Report polymerase ribozyme fitness (log ratio) for U4G U13G A30C U31A G50U C95U C103A C105U please.
Ans. ≤ -4.2

Entry source: the RNAGym collection of RNA variant scans (doi:10.1073/pnas.2313332121)
